target: Protein cereblon/Histone-lysine N-methyltransferase EZH2 (Homo sapiens) (UniProt Q15910+Q96SW2); test: PROTAC activity at CRBN/EZH2 in human K562 cells assessed as degradation of EZH2 protein expression at 0.1 to 10 uM incubated for 24 hrs by Western blotting analysis; assay type: cell-based; conditions: dose 0.1-10 µM
Sequence (Q15910 whole entry, looked up, one chain of several): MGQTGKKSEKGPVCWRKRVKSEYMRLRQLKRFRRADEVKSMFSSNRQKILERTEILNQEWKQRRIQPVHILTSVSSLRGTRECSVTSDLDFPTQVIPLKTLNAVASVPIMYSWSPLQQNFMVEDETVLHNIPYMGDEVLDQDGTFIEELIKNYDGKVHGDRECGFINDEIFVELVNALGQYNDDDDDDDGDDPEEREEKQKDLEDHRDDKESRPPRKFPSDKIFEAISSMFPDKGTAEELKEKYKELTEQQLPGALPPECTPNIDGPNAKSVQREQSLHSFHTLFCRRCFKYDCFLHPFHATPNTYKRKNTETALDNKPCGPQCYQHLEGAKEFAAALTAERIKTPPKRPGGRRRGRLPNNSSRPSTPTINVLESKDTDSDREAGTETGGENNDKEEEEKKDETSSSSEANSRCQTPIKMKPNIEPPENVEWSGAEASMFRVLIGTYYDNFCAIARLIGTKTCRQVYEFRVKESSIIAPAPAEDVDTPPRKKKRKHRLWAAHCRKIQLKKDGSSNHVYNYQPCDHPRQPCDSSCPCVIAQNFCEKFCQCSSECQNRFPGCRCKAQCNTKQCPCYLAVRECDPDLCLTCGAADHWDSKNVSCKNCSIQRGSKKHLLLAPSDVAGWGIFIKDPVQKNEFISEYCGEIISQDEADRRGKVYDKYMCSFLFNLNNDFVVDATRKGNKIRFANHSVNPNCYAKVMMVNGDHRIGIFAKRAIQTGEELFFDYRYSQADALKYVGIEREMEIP
Activity calls are given as the source filed them. The rule behind the calls is not given here.

>  <molecule>
O=C(CCCNc1cccc2c1C(=O)N(C1CCC(=O)NC1=O)C2=O)NCCCCN1CCN(c2ccc(-c3cnc(NCc4ccco4)n4cnnc34)cc2)CC1 (stereo not drawn)

>  <Activity>
inactive

$$$$
>  <molecule>
O=C(CCNc1cccc2c1C(=O)N(C1CCC(=O)NC1=O)C2=O)NCCCCN1CCN(c2ccc(-c3cnc(NCc4ccco4)n4cnnc34)cc2)CC1 (stereo not drawn)

>  <Activity>
inactive

$$$$
>  <molecule>
O=C(CCOCCOCCOCCNc1cccc2c1C(=O)N(C1CCC(=O)NC1=O)C2=O)NCCCCN1CCN(c2ccc(-c3cnc(NCc4ccco4)n4cnnc34)cc2)CC1 (stereo not drawn)

>  <Activity>
inactive

$$$$

###

assay: Drug concentration in Swiss albino mouse plasma at 50 mg/kg,ip administration measured after 2 hrs by LC-MS/MS analysis; assay type: ADME, organism-based
value type: concentration at 2 h

The compound O=C(CNc1cccc2c1C(=O)N(C1CCC(=O)NC1=O)C2=O)NCCCCN1CCN(c2ccc(-c3cnc(NCc4ccco4)n4cnnc34)cc2)CC1 (stereo unspecified) showed concentration at 2 h equal to > 1000 nM

###

target: Protein cereblon/Polycomb protein SUZ12 (Homo sapiens) (UniProt Q15022+Q96SW2); assay: PROTAC activity at CRBN/SUZ12 in human K562 cells assessed as degradation of SUZ12 protein expression at 0.1 to 10 uM incubated for 24 hrs by Western blotting analysis; type: cell-based; conditions: dose 0.1-10 µM
Sequence (Q15022 whole entry, looked up): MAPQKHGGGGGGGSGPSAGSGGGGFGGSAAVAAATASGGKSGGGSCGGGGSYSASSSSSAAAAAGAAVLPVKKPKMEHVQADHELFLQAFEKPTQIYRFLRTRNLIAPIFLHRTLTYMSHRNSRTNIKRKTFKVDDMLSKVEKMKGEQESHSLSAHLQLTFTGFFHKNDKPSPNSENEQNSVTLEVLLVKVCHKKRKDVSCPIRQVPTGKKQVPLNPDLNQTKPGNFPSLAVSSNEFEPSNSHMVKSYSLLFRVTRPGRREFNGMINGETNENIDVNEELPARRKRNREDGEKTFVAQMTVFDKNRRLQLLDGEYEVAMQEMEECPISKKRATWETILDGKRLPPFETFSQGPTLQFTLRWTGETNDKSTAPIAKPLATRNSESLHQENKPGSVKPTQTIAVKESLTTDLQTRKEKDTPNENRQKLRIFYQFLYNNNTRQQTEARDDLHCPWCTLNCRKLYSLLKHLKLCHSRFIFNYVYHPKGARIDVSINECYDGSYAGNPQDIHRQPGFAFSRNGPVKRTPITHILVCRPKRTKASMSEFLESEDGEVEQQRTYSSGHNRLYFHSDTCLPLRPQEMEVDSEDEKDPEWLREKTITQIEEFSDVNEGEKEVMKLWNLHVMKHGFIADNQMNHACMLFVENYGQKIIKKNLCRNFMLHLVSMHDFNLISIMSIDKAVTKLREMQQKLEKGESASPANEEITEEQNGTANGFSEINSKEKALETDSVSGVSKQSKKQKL
Sequence (Q96SW2 whole entry, looked up): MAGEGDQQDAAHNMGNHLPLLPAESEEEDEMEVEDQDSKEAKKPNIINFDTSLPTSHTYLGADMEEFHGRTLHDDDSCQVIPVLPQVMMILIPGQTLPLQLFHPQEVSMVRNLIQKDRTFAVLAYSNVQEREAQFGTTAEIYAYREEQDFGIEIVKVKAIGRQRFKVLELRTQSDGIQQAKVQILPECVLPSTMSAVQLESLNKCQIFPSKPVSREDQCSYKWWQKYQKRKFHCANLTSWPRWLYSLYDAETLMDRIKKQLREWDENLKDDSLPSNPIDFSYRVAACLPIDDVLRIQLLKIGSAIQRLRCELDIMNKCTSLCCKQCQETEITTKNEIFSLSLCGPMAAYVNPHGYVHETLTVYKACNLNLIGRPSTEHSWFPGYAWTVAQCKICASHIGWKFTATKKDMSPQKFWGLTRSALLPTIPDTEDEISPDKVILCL
Active and inactive are the calls of the source. No cut-off for these calls is given here.
Return exactly one item of active, inactive

Below are worked cases with known answers.
>  <compound>
O=C(CCOCCNc1cccc2c1C(=O)N(C1CCC(=O)NC1=O)C2=O)NCCCCN1CCN(c2ccc(-c3cnc(NCc4ccco4)n4cnnc34)cc2)CC1 (stereo unspecified)

>  <classification>
inactive

$$$$
>  <compound>
O=C(CCOCCOCCOCCNc1cccc2c1C(=O)N(C1CCC(=O)NC1=O)C2=O)NCCCCN1CCN(c2ccc(-c3cnc(NCc4ccco4)n4cnnc34)cc2)CC1 (stereo unspecified)

>  <classification>
inactive

$$$$
>  <compound>
O=C(CCCCNc1cccc2c1C(=O)N(C1CCC(=O)NC1=O)C2=O)NCCCCN1CCN(c2ccc(-c3cnc(NCc4ccco4)n4cnnc34)cc2)CC1 (stereo unspecified)

>  <classification>
inactive

$$$$
>  <compound>
O=C(CCNc1cccc2c1C(=O)N(C1CCC(=O)NC1=O)C2=O)NCCCCN1CCN(c2ccc(-c3cnc(NCc4ccco4)n4cnnc34)cc2)CC1 (stereo unspecified)

>  <classification>
inactive

$$$$
>  <compound>
O=C(CCOCCOCCNc1cccc2c1C(=O)N(C1CCC(=O)NC1=O)C2=O)NCCCCN1CCN(c2ccc(-c3cnc(NCc4ccco4)n4cnnc34)cc2)CC1 (stereo unspecified)

>  <classification>
active

$$$$

Recorded call for O=C(CCOCCOCCOCCOCCNc1cccc2c1C(=O)N(C1CCC(=O)NC1=O)C2=O)NCCCCN1CCN(c2ccc(-c3cnc(NCc4ccco4)n4cnnc34)cc2)CC1 (stereo unspecified) ?
inactive
